Reference source: a melting point compilation (Tetko et al.)

test_readout: melting point

Below, each entry is followed by its recorded melting point result.
{"columns": ["compound", "recorded_value"],
 "data": [
  ["Nc1nc(C2CC2)c(Cc2ccccc2F)s1", "114 to 116 °C"],
  ["CCOc1cc(C(=O)N2CCCC(C(=O)O)C2)cc(OCC)c1OCC (stereo not given)", "183 to 185 °C"],
  ["N#Cc1ccc(F)c(F)c1N", "92 to 94 °C"],
  ["CN1CCN(c2cccc(Cl)c2C=O)CC1", "80 to 82 °C"],
  ["O=C(c1cnoc1)c1ccccc1O", "113 to 115 °C"],
  ["CN(C)S(=O)(=O)c1c[nH]c(C(=O)O)c1", "197 to 199 °C"]
]}

q: Could you share which melting point value was measured for COC(=O)c1cccc(NC(=O)CC(C)=O)c1 ?
a: 75 to 77 °C

q: Another compound to check: COc1cc(C)sc1C(=O)O
a: 159 to 161 °C

q: Moving on to the next compound: O=S(=O)(F)CCn1nnc(-c2ccccc2)n1
a: 97 to 99 °C

q: Let us now turn to Nc1ccc(S(=O)(=O)N2CCCCCC2)cc1
a: 105 to 107 °C

====

test_readout: melting point

Check out these entries, answers already filled in.
{"columns": ["compound_structure", "melting point"],
 "data": [
  ["O=C(Nc1cn[nH]c1)c1ccncc1", "239 to 241 °C"],
  ["NNC(=O)c1ccc(Cl)cc1O", "209 to 211 °C"],
  ["COc1ccc(Br)c(C#N)c1", "101 to 103 °C"],
  ["O=C(O)c1cc(S(=O)(=O)N2CCCC2)ccc1Br", "216 to 218 °C"],
  ["O=C(O)c1ccn(-c2ccccc2)n1", "138 to 140 °C"],
  ["COc1cc2c(cc1OC)NCC2", "103 to 105 °C"],
  ["CCOC(=O)c1ccc(C=O)o1", "35 to 37 °C"],
  ["COc1ccc(CCNC(N)=S)cc1", "166 to 168 °C"],
  ["CNC(=O)NC1(C(=O)O)CCCC1", "165 to 167 °C"],
  ["C=CCNC(=O)CN1CCNCC1", "63 to 65 °C"]
]}

q: Which measured melting point value corresponds to CC(C)(C)OC(=O)N1CCN(c2ccc(Cl)nn2)CC1 ?
a: 162 to 164 °C

q: Same question for Cc1ccc(SC2(C(=O)O)CCCC2)cc1 please.
a: 80 to 82 °C

q: Continue with O=C(O)c1cccc(Oc2cccc(C(F)(F)F)c2)c1
a: 115 to 117 °C

====

test_readout: melting point

The following compounds have reported results that may help.
{"columns": ["compound", "melting point"],
 "data": [
  ["Cn1ccnc1SCC(=O)O", "88 to 90 °C"],
  ["O=S1(=O)CC(O)C(NCc2ccco2)C1 (stereo not given)", "139 to 141 °C"],
  ["Cc1c(C=O)c2ccccn2c1C#N", "170 to 172 °C"],
  ["O=C(Cc1nc2ccccc2s1)c1ccccc1", "113 to 115 °C"],
  ["Nc1ncc(Cc2ccc(F)c(F)c2F)s1", "105 to 107 °C"]
]}

q: Report melting point for CCN1CCCC1CN=C=S (stereo not given) please.
a: 43 to 45 °C

q: Try this compound too: Cc1ccc(C)c(S(=O)(=O)Oc2ccccc2C(=O)O)c1
a: 120 to 122 °C

q: Next entry: O=c1[nH]nc2cncc(Cl)n12
a: 169 to 171 °C

q: Try this compound too: CNC1CCN(c2cc(OC)cc(OC)c2)C1 (stereo not given)
a: 52 to 54 °C

q: Further, for O=C(O)c1cnn(-c2ccc([N+](=O)[O-])cc2)c1 ?
a: 258 to 260 °C

q: Another compound: O=C1CCCc2cc(C(=O)CCl)ccc2N1
a: 154 to 156 °C

q: Same thing, different compound: NNC(=O)NCc1ccc(Cl)cc1
a: 163 to 165 °C

q: Follow-up item: O=C(O)C1(c2ccc(Cl)cc2)CCOCC1
a: 181 to 183 °C

q: Same again, this time with CS(=O)(=O)c1ccc(C2CO2)cc1 (stereo not given)
a: 97 to 99 °C

q: Here is the next compound: O=C1CC2CCCN2c2ccccc2N1 (stereo not given)
a: 139 to 141 °C

q: Repeat for the following compound: CCOC(=O)CN(C(=O)CCl)c1ccccc1
a: 130 to 135 °C

q: Please give the result for CNc1cc(NC)c([N+](=O)[O-])cc1F too.
a: 185 to 187 °C

q: Also O=C(O)Cc1ccccc1OC(F)F , if possible.
a: 76 to 78 °C

q: Can you check COC(=O)c1ccc(S(C)(=O)=O)cc1 next?
a: 116 to 118 °C

q: Try this compound next: NS(=O)(=O)c1cc(Cl)c(Br)s1
a: 147 to 149 °C

====

test_readout: melting point

{"columns": ["molecule", "recorded_value"],
 "data": [
  ["Cc1ccc(-c2nnc(S)o2)cc1", "266 to 268 °C"],
  ["O=C(O)c1ccc(-c2nnco2)cc1", "261 to 263 °C"],
  ["O=c1[nH]c(Nc2ccccc2)cc2ccccc12", "191 to 193 °C"],
  ["Clc1ccc2c(n1)CCC2", "69 to 71 °C"],
  ["CN(C)Cc1cccc(NC(=O)c2nonc2N)c1", "142 to 144 °C"],
  ["O=c1c2sccc2nc(S)n1Cc1ccccc1", "249 to 251 °C"]
]}

q: Quick one: melting point of O=C(O)CCCOc1ccccc1Cl ?
a: 84 to 86 °C

q: Then Fc1ccc(-c2ccn[nH]2)cc1Cl ?
a: 109 to 111 °C

q: Next up: Cc1c(I)cccc1[N+](=O)[O-]
a: 34 to 36 °C

q: Next: Cc1ccccc1CC(N)=NO
a: 121 to 123 °C

q: Could you do the same for CCC1NC(=O)NC1=O (stereo not drawn) , please?
a: 115 to 119 °C

q: How about this molecule: Cc1ccccc1CNc1ccc2[nH]c(=O)[nH]c2c1
a: 204 to 206 °C

q: Also O=C(O)CCSc1ccccc1 ?
a: 59 to 61 °C

q: Ok, now NS(=O)(=O)Cc1c(F)cccc1F
a: 153 to 155 °C

q: Can you check Nc1cnccc1-c1cccc(F)c1 next?
a: 66 to 68 °C

q: Item: Nc1ccc(C=O)cc1[N+](=O)[O-]
a: 173 to 175 °C

q: Now the molecule O=C(O)c1ccc(COCC(F)(F)F)cc1
a: 149 to 151 °C

q: Now the same for O=C(O)c1cc(-c2ccccn2)ccc1Cl
a: 215 to 217 °C

q: Now the molecule COc1ccc(NS(=O)(=O)c2ccc(NN)c([N+](=O)[O-])c2)cc1
a: 204 to 206 °C

q: How about O=C1NC(=O)C2CC12 (stereo not drawn) ?
a: 94 to 96 °C

q: Same read-out for Cc1cccc(N2CCN(CCN)CC2)c1C ?
a: 60 to 62 °C

q: Could you do the same for CC(Cl)C(=O)NCC1CCCCC1 (stereo not drawn) , please?
a: 83 to 85 °C

q: // query: CCOc1ccc(N2C(=O)c3ccc(C(=O)O)cc3C2=O)cc1
a: 265 to 267 °C

====

Each entry below carries its recorded melting point.

{"columns": ["compound", "melting point"],
 "data": [
  ["O=C(O)CCc1csc2nc(C3CC3)cn12", "240 to 242 °C"],
  ["Cc1cc(C(=O)O)cc(C)c1OCc1cccnc1", "182 to 184 °C"],
  ["CC(C)(C)OC(=O)N1CCN(C(N)=O)CC1", "175 to 177 °C"],
  ["N#CCCNc1ccc2c(c1)OCCO2", "83 to 85 °C"],
  ["O=C1CCc2cc(C(=O)c3ccccc3)ccc2N1", "207 to 209 °C"],
  ["Cc1c(N)cccc1-n1cnnn1", "124 to 126 °C"]
]}

q: For the compound shown here, Cc1nc(C)c2c(C)c(C(=O)O)sc2n1 , give the reported melting point.
a: 347 to 349 °C

q: How about this compound: CCC(Cc1ccccc1Br)C(=O)O (centres undefined)
a: 67 to 69 °C

q: Queued: O=c1cc(CCl)occ1O
a: 166 to 168 °C

q: Again, but for O=C(O)CNc1ncccn1
a: 169 to 171 °C

q: One more compound: NC(=O)CCc1csc(N)n1
a: 141 to 143 °C

q: Another compound to check: Cc1nnc(N2CCCC2)c(C#N)c1C
a: 146 to 148 °C

q: Input CC1Oc2c(cccc2C(=O)O)NC1=O (centres undefined)
a: 281 to 283 °C

q: Similarly, COCCN(C(=O)CCl)c1c(N)n(CC(C)C)c(=O)[nH]c1=O ?
a: 204 to 206 °C

q: Next compound up: CCc1ccccc1-n1c(S)nc2ccccc2c1=O
a: 304 to 306 °C

q: Cool, now Cc1nc(C)c(-c2csc(N)n2)s1
a: 125 to 127 °C

q: Field entry: COC(=O)c1csc(S(=O)(=O)Cl)c1
a: 54 to 56 °C

q: Note, next up: Oc1ncncc1Br
a: 193 to 195 °C

q: And NNC(=O)CCN1CCN(c2ccccc2)CC1 ?
a: 120 to 122 °C
